Hey, just so you know, these numbers are from patent US10336746B1.

assay: Bi-directional Caco-2 permeability; type: in vitro ADME; conditions: human, Caco-2, Caco-2, AB direction; read-out: AB Recovery %
Kind request: treat 60% as inclusive, so recovery at 90 min at 60% or higher is met, anything lower is not met.

Quick check, recovery at 90 min >= 60%? CC(C)(C)NS(=O)(=O)c1cc(NC(=O)NCc2ccccc2F)ccc1-c1cnc(C2CCC(NC(=O)OC3COC3)CC2)s1 (stereo not drawn) [Ex. 53] met

Would you kindly repeat that for C[C@@H](NC(=O)Nc1ccc(-c2cnc(C3CCC(NC(=O)OC4COC4)CC3)s2)c(S(=O)(=O)NC(C)(C)C)c1)c1ccccc1 (stereo partly drawn) [Ex. 52] ? met

Also, CC(C)(C)NS(=O)(=O)c1cc(NC(=O)NCc2ccccn2)ccc1-c1cnc(C2CCC(NC(=O)OC(C)(C)C)CC2)s1 (stereo not drawn) [Ex. 45] please. met

Now consider CC(C)OC(=O)N[C@H]1CC[C@H](c2ncc(-c3ccc(NC(=O)NCc4ccccc4)cc3S(=O)(=O)NC(C)(C)C)s2)OC1 [Ex. 59B] . not met

One more compound: CC(C)OC(=O)Nc1ccc(-c2cnc([C@@H]3CC[C@@H](NC(=O)OC(C)C)CO3)s2)c(S(=O)(=O)NC(C)(C)C)c1 [Ex. 60A] not met

###

Test: Bi-directional Caco-2 permeability
Type: in vitro ADME
Conditions: human; Caco-2, basolateral to apical, 37 C, up to 90 minutes; read-out: BA Papp (cm/sec × 10^6)
Protocol: Bi-directional Caco-2 permeability was assayed. Caco-2 cells were seeded onto permeable polycarbonate supports and allowed to differentiate for about 3 weeks prior to being used in the assays. The cells were then exposed to the compounds from either the apical or basolateral sides and incubated at 37 C for up to 90 minutes under light agitation. Compound transport was then measured using LC/MS/MS analysis at 30, 60, and 90 minutes.
Hi, to clarify the labels: class 1 covers Papp B→A at 90 min from 10 ×10⁻⁶ cm/s upward, class 0 covers anything below 10 ×10⁻⁶ cm/s.

{"Compound": "CC(C)(C)NS(=O)(=O)c1cc(NC(=O)NCc2ccccn2)ccc1-c1cnc(C2CCC(NC(=O)OC3COC3)CC2)s1 (stereo not shown) [Ex. 50]", "Group": "class 1"}

Hi team, for CC(C)OC(=O)Nc1ccc(-c2cnc([C@H]3CC[C@H](NC(=O)OC(C)C)CO3)s2)c(S(=O)(=O)NC(C)(C)C)c1 [Ex. 60B] , is the recorded Papp B→A at 90 min at or above 10 ×10⁻⁶ cm/s? class 1

How about this compound: CC(C)OC(=O)N[C@H]1CC[C@H](c2ncc(-c3ccc(NC(=O)N[C@H](C)c4ccccn4)cc3S(=O)(=O)NC(C)(C)C)s2)CC1 [Ex. 30] class 1

Please do the same for CC(C)(C)NS(=O)(=O)c1cc(NC(=O)NCc2ccccn2)ccc1-c1cnc(C2CCC(NC(=O)OC(C)(C)C)CC2)s1 (stereo not shown) [Ex. 45] as well. class 1

###

I'd appreciate it if you could supply recovery at 90 min values for the items below.
test: Bi-directional Caco-2 permeability; type: in vitro ADME; conditions: human, Caco-2, Caco-2, AB direction; read-out: AB Recovery %
One number for each entry, in %.

Example entries begin here.
{"Record Smiles": "CC(C)OC(=O)Nc1ccc(-c2cnc(N3CCN(C(=O)OC(C)C)CC3)s2)c(S(=O)(=O)NC(C)(C)C)c1", "Units Text": "%", "recovery at 90 min": 34.7}
{"Record Smiles": "CC(C)OC(=O)N[C@H]1CC[C@H](c2ncc(-c3ccc(NC(=O)NCc4ccccn4)cc3S(=O)(=O)NC(C)(C)C)s2)CC1", "Units Text": "%", "recovery at 90 min": 93.9}

Here is another compound to look at.
Report recovery at 90 min for CC(C)OC(=O)N[C@H]1CC[C@H](c2ncc(-c3ccc(NC(=O)N[C@H](C)c4ccccn4)cc3S(=O)(=O)NC(C)(C)C)s2)CC1 please. 79.8
